List of z-score values.
measurement-notes: growth of efflux-deficient E. coli DRC39 – strain DRC39, OD650, 48 h, E. coli filamentation inducers, primary screen (AID 1179);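 further: screen aims at cell division blockers that make cells filament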
experimental-parameters: E. coli DRC39 delta-acrAB growth, higher = more signal, called active from +8 up or from −8 down
Activity calls are given as the source filed them.
reported-metric: z-score

| compound | experimental-result |
| --- | --- |
| CCOC(=O)C1=CC[C@H]2C(=O)N(c3ccccc3)C(=O)[C@@H]12 | -1.17 (inactive) |
| CC(c1ccccc1)C(O)C1C=CC2C(=O)N(C)C(=O)C2N1NC(=O)OC(C)(C)C (stereo not drawn) | -0.339 (inactive) |
| C=CCNC(=O)[C@H]1[C@@H]2C(=O)O[C@@H](c3ccccc3)[C@@H](c3ccccc3)N2[C@@H](c2ccc(O)cc2)[C@]12C(=O)Nc1ccc(C#CCCO)cc12 | 0.567 (inactive) |
| COc1cc2c(cc1O)C(c1cccs1)N(Cc1ccc([N+](=O)[O-])o1)CC2 (stereo not drawn) | 1.19 (inactive) |
| O=C1C2C=CC(C(O)c3ccc(-c4ccccc4)s3)N(Nc3ccccc3)C2C(=O)N1c1ccccc1 (stereo not drawn) | 0.7 (inactive) |
| CC(C)CNC(=O)[C@@]1(Cc2ccccc2I)c2ccccc2C(=O)N(Cc2ccccc2C(F)(F)F)[C@H]1c1ccc(CO)cc1 | 0.588 (inactive) |
| CS(=O)(=O)CCOC(=O)C1=CC(CCCO)=CC(c2ccc(CN3CCCC3)cc2)N(Cc2cccc(OC(F)(F)F)c2)C=C1C(=O)OCCS(C)(=O)=O (stereo not drawn) | 0.399 (inactive) |
| CC(c1ccccc1)C(O)C1C=CC2C(=O)N(c3ccccc3)C(=O)C2N1Nc1ccccc1 (stereo not drawn) | -0.565 (inactive) |

====

measurement-notes: calcein-AM signal in unstimulated myeloma cells – cell-based, calcein-AM fluorescence, 48 h, PK04 Diversity Set, profiling panel (AID 1166);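 further: cells grown under basal conditions without added stimulus; test concentration not given here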
experimental-parameters: RPMI8226 myeloma viability, higher = more signal
Friendly reminder: z-score below 0.1 is label 1, at or above is label 0.

| molecule | classification |
| --- | --- |
| CCOC(=O)C[C@H]1[C@H](OC(=O)c2ccc(C(=O)c3ccccc3)cc2)[C@@H](NC(=O)c2ccccc2)c2cc(OCCCO)ccc2N1C(=O)c1ccccc1 | label 0 |
| O=C1O[C@@H](c2ccccc2)[C@@H](c2ccccc2)N2[C@@H](c3ccccc3OCCO)[C@]3(C(=O)Nc4ccc(C#CC5(O)CCCCCC5)cc43)[C@@H](C(=O)N3CCN(c4ncccn4)CC3)[C@H]12 | label 1 |
| O=C1O[C@@H](c2ccccc2)[C@@H](c2ccccc2)N2[C@@H](c3ccc(OCCO)cc3)[C@]3(C(=O)Nc4ccc(C#CCCO)cc43)[C@@H](C(=O)NC[C@H](O)c3ccccc3)[C@H]12 | label 0 |
| CC(C)(C)OC(=O)CC[C@]1(C(N)=O)N=C(c2ccc(OCCCO)cc2)O[C@H]1c1ccccc1 | label 0 |
| CC(c1ccccc1)C(O)C1C=CC2C(=O)N(C)C(=O)C2N1NC(=O)OC(C)(C)C (configuration not stated) | label 1 |
| O=c1cccc(-c2ccccc2Cl)o1 | label 1 |

====

study-target: Albumin (Bos taurus)
measurement-notes: compounds binding labelled BSA control protein – biochemical, small-molecule microarray, Alexa647 label, 635/667 nm fluorescence, artefact control for SMM control protein annotation, profiling panel (AID 1118);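 further: score merges 667 nm emission intensity and signal-to-noise per printed compound spot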
experimental-parameters: BSA-A647 binding, fluorescence 635 nm, higher = more signal
Would you mind labelling by composite z-score? At or over 0.4 is satisfied, under is not satisfied.

| compound | classification |
| --- | --- |
| CC(C)[C@@H](C(=O)O)n1cc(C2(O)CCCCC2)nn1 | satisfied |
| CC=CC(O)C1C=CC2C(=O)N(C)C(=O)C2N1N(c1ccccc1)c1ccccc1 (stereo unspecified) | satisfied |
| O=C1NC(=O)C2C1C=CC(C(O)c1ccc(I)cc1)N2Nc1ccc(Cl)cc1Cl (stereo unspecified) | satisfied |
| CC[C@@H]1C=C(C(=O)O)[C@H](c2cccc3ccccc23)N1S(=O)(=O)c1ccc(C)cc1 | satisfied |
| COCCOC(=O)N1C(=O)[C@@]2(c3cc(C#CC4(O)CCCCCC4)ccc31)[C@H](C(=O)Nc1nc3ccccc3s1)[C@H]1C(=O)O[C@H](c3ccccc3)[C@H](c3ccccc3)N1[C@@H]2c1ccccc1OCCO | not satisfied |
| CCOC(=O)C1=CC[C@H]2C(=O)N(c3ccccc3)C(=O)[C@@H]12 | satisfied |
| O=C(CS)NCCCCCNC(=O)[C@@H]1C[C@@H]2C(=O)NCC(=O)N2[C@@H]1c1cccc(OCCO)c1 | satisfied |
| O=C(CS)NCCCCCNC(=O)[C@H]1C[C@H]2C(=O)NCC(=O)N2[C@H]1c1ccc(O)cc1 | not satisfied |
| COc1ccc(-c2cc3c(c(Cc4ccccc4)n2)[Si](C(C)C)(C(C)C)OC3)cn1 | not satisfied |
| CN1C(=O)C2C=CC(C(O)c3ccccc3)N(N3CCCCC3)C2C1=O (stereo unspecified) | satisfied |
| COc1ccc([C@H]2C[C@H]3C(I)=C[C@@H]2C(=O)[C@]32CO2)cc1 | not satisfied |
| C=C(/C(=C/C[C@H](OC(C)=O)c1ccc(OCCO)cc1)c1cc(C(=O)OC)ccc1OC)C(C)C | not satisfied |
| CCOC(=O)C1=CCC(c2ccc(F)cc2)N(S(=O)(=O)c2ccc(C)cc2)C1 (stereo unspecified) | satisfied |
| COc1ccc([Si](C)(C)[C@H]2[C@H](CC(=O)N3CCC[C@H]3CO)O[C@@]3(C(=O)N(Cc4cccc(N5CCOC5=O)c4)c4ccccc43)[C@@H]2C)cc1 | not satisfied |
| CC(CO)N1C(=O)[C@@H]2C3C(=O)OCCC/C=C\[C@H]3OC23C=CCN(CCN2CCOCC2)C(=O)[C@@H]13 (stereo partly specified) | not satisfied |
